Origin of values: patent US8937167B2

biological target: FimH (Escherichia coli, UniProt Q1R2J4); conditions: read-out: HA 50% titer; Table 13; Example 6 numbering
pEC50: −log10 of the molar value.

[
  {
    "test-smiles": "CCCCCCCO[C@H]1O[C@H](CO)[C@@H](O)[C@H](O)[C@@H]1O",
    "pEC50": 4.82
  }
]

* * *

// values below are HAI Titer EC>90; system is FimH (Escherichia coli, UniProt Q1R2J4);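 note: hemagglutination inhibition of guinea pig erythrocytes agglutinated by type 1 piliated uropathogenic E. coli via FimH mannose binding, quantified through serial dilutions of compound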

[
  {
    "molecule": "CNC(=O)c1cccc(-c2ccc(OC3OC(CO)C(O)C(O)C3O)cc2C(=O)NC)c1 (stereo not shown)",
    "HAI Titer EC>90, µM": 12.000
  },
  {
    "molecule": "CC(=O)Nc1ccccc1OC1OC(CO)C(O)C(O)C1O (stereo not shown)",
    "HAI Titer EC>90, µM": 125.000
  },
  {
    "molecule": "O=C(c1ccccc1)c1cccc(OC2OC(CO)C(O)C(O)C2O)c1 (stereo not shown)",
    "HAI Titer EC>90, µM": 8.000
  },
  {
    "molecule": "O=C1Cc2cc(OC3OC(CO)C(O)C(O)C3O)ccc2O1 (stereo not shown)",
    "HAI Titer EC>90, µM": 8.000
  },
  {
    "molecule": "O=C(O)c1cccc(OC2OC(CO)C(O)C(O)C2O)c1 (stereo not shown)",
    "HAI Titer EC>90, µM": 60.000
  },
  {
    "molecule": "CCCc1ccc(OC2OC(CO)C(O)C(O)C2O)cc1 (stereo not shown)",
    "HAI Titer EC>90, µM": 15.000
  },
  {
    "molecule": "COC(=O)c1ccc(-c2ccc(OC3OC(CO)C(O)C(O)C3O)cc2)cc1 (stereo not shown)",
    "HAI Titer EC>90, µM": 4.000
  },
  {
    "molecule": "OCC1OC(Oc2ccccc2Cl)C(O)C(O)C1O (stereo not shown)",
    "HAI Titer EC>90, µM": 4.000
  },
  {
    "molecule": "NC(=O)c1cccc(-c2ccc(OC3OC(CO)C(O)C(O)C3O)cc2)c1 (stereo not shown)",
    "HAI Titer EC>90, µM": 2.000
  },
  {
    "molecule": "CNC(=O)c1cccc(-c2ccc(OC3O[C@@H](CO)[C@@H](O)[C@H](O)[C@H]3O)c(Cl)c2)c1 (stereo partly shown)",
    "HAI Titer EC>90, µM": 0.125
  },
  {
    "molecule": "NC(=O)Nc1ccc(-c2ccc(OC3O[C@@H](CO)[C@@H](O)[C@H](O)[C@H]3O)cc2)cc1 (stereo partly shown)",
    "HAI Titer EC>90, µM": 3.000
  },
  {
    "molecule": "COC(=O)c1ccc(OC2OC(CO)C(O)C(O)C2O)cc1 (stereo not shown)",
    "HAI Titer EC>90, µM": 8.000
  },
  {
    "molecule": "CNC(=O)c1cccc(-c2ccc(OC3O[C@@H](CO)[C@@H](O)[C@H](O)[C@H]3O)c(C(F)(F)F)c2)c1 (stereo partly shown)",
    "HAI Titer EC>90, µM": 0.032
  },
  {
    "molecule": "O=C(NCCO)c1cccc(-c2ccc(OC3OC(CO)C(O)C(O)C3O)cc2)c1 (stereo not shown)",
    "HAI Titer EC>90, µM": 0.5000
  },
  {
    "molecule": "COC(=O)Cc1ccc(OC2OC(CO)C(O)C(O)C2O)cc1 (stereo not shown)",
    "HAI Titer EC>90, µM": 30.000
  },
  {
    "molecule": "COC(=O)c1cc2cc(OC3OC(CO)C(O)C(O)C3O)ccc2s1 (stereo not shown)",
    "HAI Titer EC>90, µM": 2.000
  },
  {
    "molecule": "O=C(Nc1ccncc1)c1cccc(-c2ccc(OC3OC(CO)C(O)C(O)C3O)cc2)c1 (stereo not shown)",
    "HAI Titer EC>90, µM": 0.25
  },
  {
    "molecule": "N#Cc1ccc(OC2OC(CO)C(O)C(O)C2O)cc1 (stereo not shown)",
    "HAI Titer EC>90, µM": 30.000
  },
  {
    "molecule": "OCC1OC(Oc2cccc(Cl)c2)C(O)C(O)C1O (stereo not shown)",
    "HAI Titer EC>90, µM": 8.000
  },
  {
    "molecule": "CN1CCN(C(=O)c2cccc(-c3ccc(OC4OC(CO)C(O)C(O)C4O)cc3)c2)CC1 (stereo not shown)",
    "HAI Titer EC>90, µM": 4.000
  },
  {
    "molecule": "OCC1OC(OCc2ccccc2)C(O)C(O)C1O (stereo not shown)",
    "HAI Titer EC>90, µM": 60.000
  },
  {
    "molecule": "N#Cc1cccc(OC2OC(CO)C(O)C(O)C2O)c1 (stereo not shown)",
    "HAI Titer EC>90, µM": 23.000
  },
  {
    "molecule": "O=[N+]([O-])c1ccc(OC2OC(CO)C(O)C(O)C2O)cc1 (stereo not shown) [PNP-mannoside, reference compound]",
    "HAI Titer EC>90, µM": 31.000
  },
  {
    "molecule": "O=C(Nc1cccnc1)c1cccc(-c2ccc(OC3OC(CO)C(O)C(O)C3O)cc2)c1 (stereo not shown)",
    "HAI Titer EC>90, µM": 0.375
  },
  {
    "molecule": "COC(=O)c1cccc(-c2ccc(SC3OC(CO)C(O)C(O)C3O)cc2)c1 (stereo not shown)",
    "HAI Titer EC>90, µM": 4.000
  },
  {
    "molecule": "COC(=O)c1cccc(-c2ccc(NC3OC(CO)C(O)C(O)C3O)cc2)c1 (stereo not shown)",
    "HAI Titer EC>90, µM": 4.000
  },
  {
    "molecule": "COC(=O)c1cc2ccc(OC3OC(CO)C(O)C(O)C3O)cc2s1 (stereo not shown)",
    "HAI Titer EC>90, µM": 2.000
  },
  {
    "molecule": "OCc1ccccc1-c1ccc(OC2OC(CO)C(O)C(O)C2O)cc1 (stereo not shown)",
    "HAI Titer EC>90, µM": 16.000
  },
  {
    "molecule": "NC(=O)c1ccc(OC2OC(CO)C(O)C(O)C2O)cc1 (stereo not shown)",
    "HAI Titer EC>90, µM": 15.000
  },
  {
    "molecule": "CN(C)C(=NCCNC(=O)c1cccc(-c2ccc(OC3OC(CO)C(O)C(O)C3O)cc2)c1)N(C)C (stereo not shown)",
    "HAI Titer EC>90, µM": 2.000
  },
  {
    "molecule": "OCC1OC(Oc2ccc3ccccc3c2)C(O)C(O)C1O (stereo not shown)",
    "HAI Titer EC>90, µM": 6.000
  },
  {
    "molecule": "OCC1OC(n2cc(-c3ccccc3)nn2)C(O)C(O)C1O (stereo not shown)",
    "HAI Titer EC>90, µM": 32.000
  },
  {
    "molecule": "COC(=O)c1cccc(-c2ccc(OC3O[C@@H](CO)[C@@H](O)[C@H](O)[C@H]3O)c(F)c2)c1 (stereo partly shown)",
    "HAI Titer EC>90, µM": 0.750
  }
]
